Numbers sourced from patent US20260053834A1.

- Test system: LAPC4 prostate cancer cells, which express the AKT1 E17K allele
- procedureDetails: Antiproliferative effects in LAPC4 cells (CellTiter Glo, 72 h)
- Type: cell-based
- setupConditions: Homo sapiens, LAPC4, 72 h, read-out: LAPC4 proliferation IC50: GeoMean IC50
For each of the molecules below, state its IC50.

Name the reported IC50 value associated with the molecule CS(=O)(=O)Nc1cc2ncn([C@H]3CCc4cc(-n5c(-c6cccnc6N)nc6ccc(-n7cccn7)nc65)ccc43)c(=O)c2cc1C=O 100 to 2000 nM

Now this one: Nc1ncccc1-c1nc2ccc(-n3cccn3)nc2n1-c1ccc2c(c1)CC[C@@H]2n1cnc2c(F)c(O)c(C=O)cc2c1=O 100 to 2000 nM

Next molecule: CN(C)S(=O)(=O)Nc1ccc(C(=O)N[C@H]2CCc3cc(-n4c(-c5cccnc5N)nc5ccc(-n6cccn6)nc54)ccc32)cc1C=O 10 to 100 nM

Now the molecule Nc1ncccc1-c1nc2ccc(-c3ccccc3F)nc2n1-c1ccc2c(c1)CC[C@@H]2NC(=O)c1ccc(O)c(C=O)c1 10 to 100 nM

Now the molecule Cc1ccc(-c2nc3ccc(-n4cccn4)nc3n2-c2ccc3c(c2)CC[C@@H]3NC(=O)c2ccc(O)c(C=O)c2)c(N)n1 ≥ 2000 nM

What about COCc1cc(-n2cccn2)nc2c1nc(-c1cccnc1N)n2-c1ccc2c(c1)CC[C@@H]2NC(=O)c1ccc(O)c(C=O)c1 ? 100 to 2000 nM
